Kindly supply the reported GI50 values for the records listed here.
tested on: SF-268; assay: NCI tumour cell line growth inhibition, 48 h
Activity calls are given as the source filed them. No stated cut-off is given here; in the data, active = GI50 up to about 1.1 µM and inactive = higher. Where a SMILES comes first, the peptide text is derived from it. The star is where a group is joined. Boc = CC(C)(C)OC(=O)*

Which GI50 is listed for COc1cccc(Cc2c3cc(OC)ccc3cc[n+]2C)c1 ?
36.2 µM (inactive)

Which GI50 is listed for O=C(NNC(=O)c1cc(/C=C/c2cccc([N+](=O)[O-])c2)nc(S)n1)Nc1ccc(Cl)cc1 ?
> 100 µM (inactive)

Which GI50 is listed for Cn1cc[n+](-c2cc(=O)n(C)c(=O)[n-]2)c1 ?
> 100 µM (inactive)

Which GI50 is listed for c1ccc(CSc2ccccc2CN2CCN(Cc3ccccc3SCc3ccccc3)CCN(Cc3ccccc3SCc3ccccc3)CC2)cc1 ?
2.94 µM (inactive)

Which GI50 is listed for CC(C)CC(Nc1c(O)ccc2ccccc12)C(=O)O (stereo not given) ?
24.7 µM (inactive)

Which GI50 is listed for N#CCCN(CCCN(CCCN(C(=O)Nc1ccccc1)c1ccccc1)C(=O)Nc1ccccc1)C(=O)Nc1ccccc1 ?
> 8.75 µM (inactive)

Which GI50 is listed for CC(C)(C)[Si](C)(C)OCC1OC(n2cnc3c(NC(=O)c4ccccc4)ncnc32)CC1O (stereo not given) ?
64.4 µM (inactive)

Which GI50 is listed for Cc1ccc2[nH]c(Sc3c([N+](=O)[O-])ncn3C)nc2c1 ?
31.5 µM (inactive)

Which GI50 is listed for Nc1ncnc2c1ncn2C(=O)NC12CC3CC(CC(C3)C1)C2 ?
> 100 µM (inactive)

Which GI50 is listed for CCCCCCCCCCCCCC(=O)CC(=O)c1c(O)cccc1O ?
61.8 µM (inactive)

Which GI50 is listed for CSc1ncnc2c1cnn2CCCCO ?
> 100 µM (inactive)

Which GI50 is listed for COc1ccc2c3c1OC1C(F)C=CC4(O)C(C2)NCCC314 (stereo not given) ?
2.59 µM (inactive)

Which GI50 is listed for CC1(C)C2CCC(=O)C1CC2 (stereo not given) ?
> 100 µM (inactive)

Which GI50 is listed for CC1/C=C/C=C/CC/C=C/C=C/C=C/C=C/C(OC2OC(C)C(O)C(N)C2O)CC2OC(CC(O)C(O)CCC(O)CC(O)CC(O)CC(=O)OC(C)C(C)C1O)CC(O)C2C(=O)O (stereo not given) ?
24.9 µM (inactive)

Which GI50 is listed for O=C(O)c1cnc2c(ccc3ncc(C(=O)O)c(O)c32)c1O ?
> 100 µM (inactive)

Which GI50 is listed for CNC(=O)CNC(=O)C(NC(=O)CNC(=O)C1CCCN1C(=O)C(C)NC(=O)C(NC(=O)OC(C)(C)C)C(C)C)C(C)C (stereo not given) (Boc-VAPGVG-NHMe; configuration not given here) ?
> 100 µM (inactive)

Which GI50 is listed for CC(C)=CCN1CC(C)C(=O)Nc2ccccc21 (stereo not given) ?
> 100 µM (inactive)

Which GI50 is listed for O=C1Oc2ccccc2C(=O)/C1=C\Nc1nc(-c2ccccc2)cs1 ?
8.75 µM (inactive)

Which GI50 is listed for NC(=O)NNC/C(Cl)=C(\Cl)C(=O)O ?
> 100 µM (inactive)

Which GI50 is listed for Cc1cc2c(c(C#N)c1C)NC(=O)C(CC(=O)O)C2=O (stereo not given) ?
> 100 µM (inactive)

Which GI50 is listed for O=C1C2=Cc3ccccc3OC2(O)Oc2cc(O)cc(O)c21 (stereo not given) ?
> 100 µM (inactive)

Which GI50 is listed for Nc1nc(N)c2cc(Sc3ccc4nc(N)nc(N)c4c3)ccc2n1 ?
0.136 µM (active)

Which GI50 is listed for Cc1cc2c(cc1C)N1Cc3c(ccc(C)c3C)N(C2)C1.Cc1cc2c(cc1C)N1Cc3cc(C)c(C)cc3N(C2)C1 ?
> 100 µM (inactive)

Which GI50 is listed for c1ccc2c(c1)SCCCSCCSCCCS2 ?
> 100 µM (inactive)

Which GI50 is listed for COc1ccc(C2=NN(c3ccccc3)C[N+](c3ccc(OC)cc3)=N2)cc1 ?
35.9 µM (inactive)

Which GI50 is listed for N#C/C(=C\c1ccc(O)c(O)c1)C(N)=S [TYRPHOSTIN 47] ?
66.1 µM (inactive)

Which GI50 is listed for OCC1OC(NO)C(O)C(O)C1O (stereo not given) ?
> 100 µM (inactive)

Which GI50 is listed for COc1cc(C=O)cc(/C=N/c2ccccn2)c1O ?
3.37 µM (inactive)

Which GI50 is listed for O=C1OC(CC(=O)c2ccc(Cl)cc2)C(Cl)=C1Cl (stereo not given) ?
> 100 µM (inactive)

Which GI50 is listed for CCOP(=O)(/C=C\n1cc(C)c(=O)[nH]c1=O)OCC ?
> 100 µM (inactive)
